src = ChEMBL document CHEMBL5113376

System: Plasmodium falciparum
Assay: Antimalarial activity against Chloroquine resistant blood stage Plasmodium falciparum clone W2
Type: functional, organism-based
pIC50: −log10 of the molar value.
Let's look at some molecules and their measured pIC50.

[
  {
    "TEST SMILES": "O=C1C(O)=C(CN2CC3CCC2CC3)C(=O)c2ccccc21",
    "pIC50": 5.89
  },
  {
    "TEST SMILES": "CCCN(CCC)CC1=C(O)C(=O)c2ccccc2C1=O",
    "pIC50": 5.72
  }
]

###

Test system: Plasmodium falciparum
Experiment: Antimalarial activity against Plasmodium falciparum TM90C2B (1995)
Assay type: functional, organism-based
pIC50: −log10 of the molar value.
READOUT: pIC50

[
  {
    "TEST SMILES": "CCCCCC[C@H](C)CC1=C(O)C(=O)c2c(C)cccc2C1=O",
    "TEST RESULT": 6.63
  }
]

###

Tested on: Plasmodium falciparum
Experiment: Antimalarial activity against Plasmodium falciparum NF54 by 96-well microtitre plate method based scintillation counting analysis
Assay type: functional, organism-based

[
  {
    "TEST SMILES": "COc1cc(O)c(-c2c(C)cc(O)c3c2C(=O)c2cccc(O)c2C3=O)c(O)c1C(C)=O",
    "IC50 (nM)": 1700
  }
]

###

System: Plasmodium falciparum
Assay: Antimalarial activity against chloroquine […] Plasmodium falciparum 3D7 incubated for 72 hrs by SYBR green staining based fluorescence reader method
Format: functional, organism-based
Conditions: 3D7, 72 h
READOUT: IC50 (µM)

[
  {
    "TEST SMILES": "Cc1cc(O)c2c(c1)C(=O)c1cc(O)c(CN3CCCCC3)c(O)c1C2=O",
    "TEST RESULT": 2.74
  }
]

###

System: Plasmodium falciparum
Assay: Antimalarial activity against Plasmodium falciparum Dd2 by SYBR green method
Assay type: functional, organism-based
READOUT: IC50

[
  {
    "TEST SMILES": "CC1=C(Cc2ccc(NC(=O)OC(C)(C)C)cc2)C(=O)c2ccccc2C1=O",
    "TESTED ON": "Plasmodium falciparum",
    "TEST RESULT": "42 nM"
  }
]
